system: TAF1-BD2 (Homo sapiens, UniProt P21675)
test-protocol: TAF1-BD2 TR-FRET Binding Assay
condition-details: Assay: TAF-1
measured-quantity: IC50 (µM)
Give the number; µM is assumed, so skip it.

Previously resolved entries follow.
| molecule | system | IC50 (µM) |
| --- | --- | --- |
| CN(C1CCCCC1)C1CCN(C(=O)c2cn(C)c(=O)c3[nH]ccc23)CC1 [Example 52] | TAF1-BD2 (Homo sapiens, UniProt P21675) | 7.1 |
| Cn1cc(C(=O)NC2CCN(c3ccccn3)CC2)c2cc[nH]c2c1=O [Example 42] | TAF1-BD2 (Homo sapiens, UniProt P21675) | 0.21 |
| Cn1cc(C(=O)N2CCC(c3cccc(F)c3)CC2)c2cc[nH]c2c1=O [Example 49] | TAF1-BD2 (Homo sapiens, UniProt P21675) | 3.9 |
| CN(C(=O)c1cn(C)c(=O)c2[nH]ccc12)C1CCN(CCc2ccccc2)CC1 [Example 252] | TAF1-BD2 (Homo sapiens, UniProt P21675) | 5 |
| Cn1cc(C(=O)NCC(C)(C)N2CCOCC2)c2cc[nH]c2c1=O [Example 36] | TAF1-BD2 (Homo sapiens, UniProt P21675) | 1.7 |
| Cn1cc(C(=O)NCC2CCN(C(=O)OC(C)(C)C)CC2)c2cc[nH]c2c1=O [Example 133] | TAF1-BD2 (Homo sapiens, UniProt P21675) | 0.85 |
| CN1CCCC(CNC(=O)c2cn(C)c(=O)c3[nH]ccc23)C1 (stereo not drawn) [Example 24] | TAF1-BD2 (Homo sapiens, UniProt P21675) | 0.15 |
| CCCN1CCC(N(C(=O)c2cn(C)c(=O)c3[nH]ccc23)C2CC2)CC1 [Example 82] | TAF1-BD2 (Homo sapiens, UniProt P21675) | 7 |

For the next question, use this molecule.
# IC50 lookup, item CN(CC1CCN(Cc2cccc(Cl)c2)CC1)C(=O)c1cn(C)c(=O)c2[nH]ccc12 [Example 199]
18

====

system: TAF1-BD2 (Homo sapiens)
Sequence (P21675 1525-1656): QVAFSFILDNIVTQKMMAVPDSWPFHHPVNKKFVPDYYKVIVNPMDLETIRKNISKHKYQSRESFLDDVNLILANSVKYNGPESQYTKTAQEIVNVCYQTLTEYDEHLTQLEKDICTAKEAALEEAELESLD
test-protocol: TAF1-BD2 TR-FRET Binding Assay
condition-details: Assay: TAF-1
This section presents compounds with their documented IC50 values.
Give the number; nM is assumed, so skip it.

Previously resolved entries follow.
| compound | quantity-unit | IC50 |
| --- | --- | --- |
| Cn1cc(C(=O)N2CCC(c3ccc(Cl)cc3)CC2)c2cc[nH]c2c1=O | nM | 1500 |
| CN(C(=O)c1cn(C)c(=O)c2[nH]ccc12)C1CCN(CC2CCCC2)CC1 | nM | 3600 |
| C=CCn1cc(C(=O)N(C)C2CCN(c3cc(CCC)ncn3)CC2)c2cc[nH]c2c1=O | nM | 2100 |

For the next question, use this compound.
# IC50 lookup, item C=CCn1cc(C(=O)N(C)C2[C@H]3CN(c4nccc(C(F)(F)F)n4)C[C@@H]23)c2cc[nH]c2c1=O (stereo partly shown)
14000
